measured target: human cannabis CB1 receptor (Homo sapiens, UniProt P21554)
Construct: expressed in transfected cells; host or cells: human embryonic kidney (HEK) cells, Semliki Forest Virus system, membrane preparations
Sequence (P21554 whole entry): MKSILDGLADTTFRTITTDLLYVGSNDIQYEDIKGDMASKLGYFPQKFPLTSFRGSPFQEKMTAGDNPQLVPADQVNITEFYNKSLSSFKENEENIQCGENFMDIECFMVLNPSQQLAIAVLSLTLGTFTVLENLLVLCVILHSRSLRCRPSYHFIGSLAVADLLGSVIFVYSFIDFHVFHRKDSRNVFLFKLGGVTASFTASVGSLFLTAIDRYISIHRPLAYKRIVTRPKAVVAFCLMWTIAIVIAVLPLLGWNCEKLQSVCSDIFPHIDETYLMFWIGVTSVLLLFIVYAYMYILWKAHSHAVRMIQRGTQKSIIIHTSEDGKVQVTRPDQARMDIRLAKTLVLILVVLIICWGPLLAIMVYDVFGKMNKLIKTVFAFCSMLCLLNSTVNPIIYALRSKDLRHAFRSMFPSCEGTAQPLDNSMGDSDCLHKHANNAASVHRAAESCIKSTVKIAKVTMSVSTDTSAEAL
test summary: CB1 receptor affinity, [3H]-CP-55,940 radioligand binding on HEK cell membranes
condition parameters: Ki calculated from IC50 (Cheng-Prusoff)
assay endpoint: Ki (µM)

I = O=C(N[C@@H]1CCCC[C@H]1O)c1cnc(OCC(F)(F)F)c(-c2ccc(Cl)c(Cl)c2)c1
II = O=C(N[C@@H]1CCCC[C@H]1O)c1cnc(OCC(F)(F)F)c(-c2ccc(Cl)cc2)c1 [reference compound]
Prompt: Field: lower Ki | Options: I / II # answer = label of selected item
Response: II
(II: 0.028 µM, I: 1.3 µM)

// provenance: patent US8227491B2
